Values from patent US20080220416A1

System: CaSki human cervical cancer cells
Assay: Cell growth inhibition assay in CaSki cervical cancer cells (crystal violet)
Format: cell-based
Settings: in combination with Notch-1 siRNA, 48 hrs, read-out: IC50 of cisplatin
Recorded endpoint: pIC50
// pIC50 here means minus log10 of the molar concentration (mol/L)

Entry N.N.[Cl][Pt][Cl] [cisplatin] , pIC50 reported as 6.34
